Target or system: SETD2(1434-1711) (Homo sapiens)
Construct: SETD2 (1434-1711) Assay; catalogue N/A
Sequence (Q9BYW2 1434-1711): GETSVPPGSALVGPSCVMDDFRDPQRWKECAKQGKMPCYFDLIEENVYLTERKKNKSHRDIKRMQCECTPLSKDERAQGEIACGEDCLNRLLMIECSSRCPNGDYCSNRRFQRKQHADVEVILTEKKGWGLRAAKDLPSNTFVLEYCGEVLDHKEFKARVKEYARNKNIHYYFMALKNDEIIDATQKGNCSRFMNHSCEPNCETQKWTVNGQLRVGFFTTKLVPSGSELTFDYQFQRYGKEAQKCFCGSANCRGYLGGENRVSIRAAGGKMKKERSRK
Assay notes: SETD2 (1434-1711) assay
Format: biochemical
Assay setup: read-out: SETD2 (1434-1711)
Observed property: IC50 (nM)

For orientation, consider the following solved cases.
Molecule: COCC1(N(C)C)CCN(c2cccc(NC(=O)c3cc4c(F)ccc(C)c4[nH]3)c2)CC1
Observed property: IC50
Uom: nM
Meas value: 50

Molecule: CNC(=NC#N)N1CCN(C2CCCC(NC(=O)c3cc4c(F)ccc(C)c4[nH]3)C2)CC1 (centres unmarked)
Observed property: IC50
Uom: nM
Meas value: 1100

1 = Cc1ccc(F)c2cc(C(=O)Nc3cccc(N4CCC(Nc5cccnc5)CC4)c3)[nH]c12
2 = CC(=O)N1CCN(c2nccc(NC(=O)c3cc4c(F)ccc(C)c4[nH]3)n2)CC1
3 = Cc1ccc(F)c2cc(C(=O)Nc3cccc(N4CCN(C(C)c5ccccc5)CC4)c3)[nH]c12 (centres unmarked)
(Q) Sort ascending by IC50. Quick reminder: the answer is the labels in the order asked.
(A) 1, 2, 3

###

Target or system: SETD2(1434-1711) (Homo sapiens, UniProt Q9BYW2)
Construct: SETD2 (1434-1711) Assay; catalogue N/A
Assay notes: SETD2 (1434-1711) assay
Assay type: biochemical
Assay setup: read-out: SETD2 (1434-1711)
Observed property: IC50 (nM)

For orientation, consider the following solved cases.
Molecule: Cc1ccc(F)c2cc(C(=O)Nc3cccc(N4CCN(C5CC5)CC4)c3)[nH]c12
Observed property: IC50
Meas value: 200
//
Molecule: CC(=O)N1CC2CC1CN2[C@H]1CCC[C@@H](NC(=O)c2cc3c(F)ccc(C)c3[nH]2)C1 (stereo partly drawn)
Observed property: IC50
Meas value: 100
//
Molecule: COC1CCN(c2cccc(NC(=O)c3cc4c(F)ccc(C)c4[nH]3)c2)CC1
Observed property: IC50
Meas value: 70
//
Molecule: COC(=O)CC(NC(=O)c1cc2cccc(C)c2[nH]1)c1ccc(C#N)cc1 (stereo not drawn)
Observed property: IC50
Meas value: 14700

1 = Cc1ccc(F)c2cc(C(=O)Nc3cccc(-c4ccno4)c3)[nH]c12
2 = CCOC(=O)N1CCC(N2CCC[C@@H](NC(=O)c3cc4c(F)ccc(C)c4[nH]3)C2)CC1
(Q) Higher IC50: 1 or 2 ? API: response body contains the label of the selected item.
(A) 2

I = Cc1ccc(F)c2cc(C(=O)Nc3cccc(N4CCC(C(C)C)CC4)c3)[nH]c12
II = CC(=O)N1CCN([C@@H]2CCC[C@@H](NC(=O)c3cc4c(F)ccc(C)c4[nH]3)C2)C[C@H]1C
III = Cc1ccc(F)c2cc(C(=O)Nc3cc(F)cc(C4CCN(C5CC(=O)N(C)C5)C4)c3)[nH]c12 (stereo not drawn)
(Q) Descending sort on IC50 required. Quick reminder: the answer is the labels in the order asked.
(A) II, I, III
(II: 1100 nM, I: 400 nM, III: 30 nM)

I = Cc1ccc(F)c2cc(C(=O)NC3CCCC(N4CCC(N(C)C(=O)C5CC5)C4)C3)[nH]c12 (stereo not drawn) [compound 972]
II = CC(=O)N1CCN(C[C@H]2CCC[C@@H](NC(=O)c3cc4c(F)ccc(C)c4[nH]3)C2)CC1
III = CNC(=O)CN1CCN(C2CCC[C@@H](NC(=O)c3cc4c(F)ccc(C)c4[nH]3)C2)CC1 (stereo partly drawn)
IV = Cc1ccc(F)c2cc(C(=O)N[C@@H]3CCC[C@@H](N4CCn5c(cccc5=O)C4)C3)[nH]c12
V = CCC(NC(=O)c1cc2cccc(C)c2[nH]1)c1nc(C)no1 (stereo not drawn)
(Q) Sort ascending by IC50. Quick reminder: the answer is the labels in the order asked.
(A) II, III, IV, I, V
(II: 200 nM, III: 400 nM, IV: 1900 nM, I: 4900 nM, V: 34500 nM)

I = Cc1cccc2cc(C(=O)Nc3cccc(N4CCN(CCN)CC4)c3)[nH]c12
II = Cc1cccc2cc(C(=O)Nc3ccc4nc(CN(C)C)cn4c3)[nH]c12
(Q) Higher IC50: I or II ? API: response body contains the label of the selected item.
(A) II

a = Cc1cc(-c2ccc(N)nc2)cnc1C(NC(=O)c1cc2cccc(C)c2[nH]1)C1CC1 (stereo not drawn)
b = Cc1ccc(F)c2cc(C(=O)Nc3cccc(N4CCOC5(CC5)C4)c3)[nH]c12
(Q) For a and b , which recorded IC50 is lower? API: response body contains the label of the selected item.
(A) b

A = Cc1ccc(F)c2cc(C(=O)N[C@@H]3CCC[C@H](N4CCn5c(cccc5=O)C4)C3)[nH]c12
B = COCCN1CCN(c2cccc(NC(=O)c3cc4c(F)ccc(C)c4[nH]3)c2)CC1
C = COC(=O)C[C@H](NC(=O)c1cc2cccc(C)c2[nH]1)c1ccccc1
D = Cc1cccnc1C(CCC(=O)N1CCNCC1)NC(=O)c1cc2cccc(C)c2[nH]1 (stereo not drawn)
E = Cc1ccc(F)c2cc(C(=O)N[C@@H]3CCC[C@H](N4CCCNC(=O)C4)C3)[nH]c12
(Q) Sort ascending by IC50. Quick reminder: the answer is the labels in the order asked.
(A) A, B, E, D, C
(A: 20 nM, B: 90 nM, E: 400 nM, D: 16600 nM, C: 55800 nM)

a = Cc1ccc(F)c2cc(C(=O)Nc3cccc(N4CCCC(N(C)C)C4)c3)[nH]c12 (stereo not drawn)
b = Cc1ccc(F)c2cc(C(=O)Nc3cccc(C4(O)CCC(N(C)C)CC4)c3)[nH]c12 (stereo not drawn)
(Q) Higher IC50: a or b ? API: response body contains the label of the selected item.
(A) a
(a: 80 nM, b: 40 nM)

P = Cc1ccc(F)c2cc(C(=O)Nc3cccc(-c4ncno4)c3)[nH]c12
Q = Cc1ccc(F)c2cc(C(=O)Nc3cccc(C(=O)N(C)C)c3)[nH]c12
R = Cc1cccc2cc(C(=O)N[C@@H](CO)c3ccccc3)[nH]c12
(Q) Sort ascending by IC50. Quick reminder: the answer is the labels in the order asked.
(A) P, Q, R
